target: recombinant Human Phosphodiesterase B2 (PDE4B2) (Homo sapiens); test: Human Phosphodiesterase B2 Radiometric Assay; type: biochemical; settings: 0.1 μg/mL recombinant PDE4B2; preincubated at 30 C for 30 min; [3H]cyclic AMP 8 nM, stopped after 20 min; yttrium silicate SPA beads; read-out: PDE4B2 pIC50 (converted)
reported-metric: IC50 (nM)
Response body: numeric value in nM, unit text excluded.

Looking up CC(C)c1ncc(C(=O)N[C@H]2CC[C@@H](NC(=O)c3cc(F)cnc3Oc3cccc(-c4ccc(O)cc4CN4CCOCC4)c3)CC2)s1 , I found its IC50 recorded as 0.2

Looking up Cc1cc(C(=O)N[C@H]2CC[C@@H](NC(=O)c3cc(F)cnc3Oc3cccc(-c4ccc(CN5C[C@@H](C)N[C@@H](C)C5)cc4)c3)CC2)nn1C , I found its IC50 recorded as 0.0251

Looking up COCc1nc(C(=O)N[C@H]2CC[C@@H](NC(=O)c3cc(F)cnc3Oc3cccc(-c4ccc(O)cc4CN4CCOCC4)c3)CC2)cs1 , I found its IC50 recorded as 0.126

Looking up CN(C)Cc1cc(O)ccc1-c1cccc(Oc2ncc(F)cc2C(=O)N[C@H]2CC[C@@H](NC(=O)c3csc(C(C)(C)C)n3)CC2)c1 , I found its IC50 recorded as 0.126

Looking up O=C(N[C@H]1CC[C@@H](NC(=O)c2cc(F)cnc2Oc2cccc(-c3ccc(O)cc3CN3CCOCC3)c2)CC1)c1ccccc1O , I found its IC50 recorded as 0.0398

---

biological target: recombinant Human Phosphodiesterase B2 (PDE4B2) (Homo sapiens, UniProt Q07343); test: Human Phosphodiesterase B2 Radiometric Assay; assay type: biochemical; details: 0.1 μg/mL recombinant PDE4B2; preincubated at 30 C for 30 min; [3H]cyclic AMP 8 nM, stopped after 20 min; yttrium silicate SPA beads; read-out: PDE4B2 pIC50 (converted)
Sequence (Q07343 1-564 isoform Q07343-2): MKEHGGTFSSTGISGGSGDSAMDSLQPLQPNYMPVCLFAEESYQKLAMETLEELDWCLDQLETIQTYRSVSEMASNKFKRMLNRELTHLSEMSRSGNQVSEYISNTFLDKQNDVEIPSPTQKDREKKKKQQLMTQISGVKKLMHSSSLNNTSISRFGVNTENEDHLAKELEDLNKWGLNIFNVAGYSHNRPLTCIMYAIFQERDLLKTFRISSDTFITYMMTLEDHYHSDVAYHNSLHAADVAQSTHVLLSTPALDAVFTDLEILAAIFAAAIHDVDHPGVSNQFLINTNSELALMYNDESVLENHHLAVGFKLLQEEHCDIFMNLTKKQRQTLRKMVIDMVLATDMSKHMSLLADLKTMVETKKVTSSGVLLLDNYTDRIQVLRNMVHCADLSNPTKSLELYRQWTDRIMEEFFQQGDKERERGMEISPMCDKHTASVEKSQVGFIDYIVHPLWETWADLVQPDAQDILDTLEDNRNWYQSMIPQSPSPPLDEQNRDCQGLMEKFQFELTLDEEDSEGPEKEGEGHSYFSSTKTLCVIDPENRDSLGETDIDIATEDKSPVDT
IC50 under 30 pM gets Yes, anything at or over 30 pM gets No.

stdin: State whether 30 pM exceeds IC50 recorded for Cn1nc(C(=O)N[C@H]2CC[C@@H](NC(=O)c3cc(F)cnc3Oc3cccc(-c4ccc(CCCN5CCNCC5)cc4)c3)CC2)cc1C(F)(F)F .
stdout: Yes

stdin: State whether 30 pM exceeds IC50 recorded for Cc1cc(C(=O)N[C@H]2CC[C@@H](NC(=O)c3cc(F)cnc3Oc3cccc(-c4ccc(O)c(CN5CCN(C(C)C)CC5)c4)c3)CC2)nn1C .
stdout: No

stdin: State whether 30 pM exceeds IC50 recorded for C[C@@H]1CN(Cc2ccc(-c3cccc(Oc4ncc(F)cc4C(=O)N[C@H]4CC[C@@H](NC(=O)c5cn6cc(F)ccc6n5)CC4)c3)c(CN3CCSCC3)c2)C[C@H](C)N1 .
stdout: Yes

stdin: State whether 30 pM exceeds IC50 recorded for C[C@@H]1CN(CCCc2ccc(-c3cccc(Oc4ncc(F)cc4C(=O)N[C@H]4CC[C@@H](NC(=O)c5nc(CO)cs5)CC4)c3)cc2)C[C@H](C)N1 .
stdout: No

stdin: State whether 30 pM exceeds IC50 recorded for Cc1cc(C(=O)N[C@H]2CC[C@@H](NC(=O)c3cc(F)cnc3Oc3cccc(-c4ccc(CCN5C[C@@H](C)N[C@@H](C)C5)cc4)c3)CC2)nn1C .
stdout: Yes

stdin: State whether 30 pM exceeds IC50 recorded for Cc1cc(C(=O)N[C@H]2CC[C@@H](NC(=O)c3cc(F)cnc3Oc3cccc(-c4ccc(CCN5CCC(N6CCCC6)CC5)cc4)c3)CC2)nn1C .
stdout: No

stdin: State whether 30 pM exceeds IC50 recorded for O=C(N[C@H]1CC[C@@H](NC(=O)c2cc(F)cnc2Oc2cccc(-c3ccc(O)cc3CN3CCOCC3)c2)CC1)c1cccc(O)n1 .
stdout: No

stdin: State whether 30 pM exceeds IC50 recorded for Cc1cc(C(=O)N[C@H]2CC[C@@H](NC(=O)c3cc(F)cnc3Oc3cccc(-c4ccc(O)cc4CN4CCSCC4)c3)CC2)nn1C .
stdout: No

stdin: State whether 30 pM exceeds IC50 recorded for C[C@@H]1CN(Cc2cc(-c3cccc(Oc4ncc(F)cc4C(=O)N[C@H]4CC[C@@H](NC(=O)c5cc(C(F)(F)F)n(C)n5)CC4)c3)ccc2O)C[C@H](C)N1 .
stdout: No

stdin: State whether 30 pM exceeds IC50 recorded for C[C@@H]1CN(Cc2ccc(-c3cccc(Oc4ncc(F)cc4C(=O)N[C@H]4CC[C@@H](NC(=O)c5cccc6cccnc56)CC4)c3)c(CN3CCOCC3)c2)C[C@H](C)N1 .
stdout: No

stdin: State whether 30 pM exceeds IC50 recorded for Cc1nc(C(=O)N[C@H]2CC[C@@H](NC(=O)c3cc(F)cnc3Oc3cccc(-c4ccc(O)c(CN5C[C@@H](C)N[C@@H](C)C5)c4)c3)CC2)cs1 .
stdout: Yes

---

target: recombinant Human Phosphodiesterase B2 (PDE4B2) (Homo sapiens, UniProt Q07343); test: Human Phosphodiesterase B2 Radiometric Assay; type: biochemical; conditions: 0.1 μg/mL recombinant PDE4B2; preincubated at 30 C for 30 min; [3H]cyclic AMP 8 nM, stopped after 20 min; yttrium silicate SPA beads; read-out: PDE4B2 pIC50 (converted)
IC50 under 0.03 nM gets Fulfilled, anything at or over 0.03 nM gets Not fulfilled.

stdin: State whether 0.03 nM exceeds IC50 recorded for Cc1cc(C(=O)N[C@H]2CC[C@@H](NC(=O)c3cc(F)cnc3Oc3cccc(-c4ccc(CCN5CCCN(C)CC5)cc4)c3)CC2)nn1C .
stdout: Not fulfilled

stdin: State whether 0.03 nM exceeds IC50 recorded for O=C(N[C@H]1CC[C@@H](NC(=O)c2cc(F)cnc2Oc2cccc(-c3ccc(O)cc3CN3CCSCC3)c2)CC1)c1cn2cc(F)ccc2n1 .
stdout: Not fulfilled

stdin: State whether 0.03 nM exceeds IC50 recorded for Cc1nc(C(=O)N[C@H]2CC[C@@H](NC(=O)c3cc(F)cnc3Oc3cccc(-c4ccc(CCN5CCCN(C)CC5)cc4)c3)CC2)cs1 .
stdout: Fulfilled

stdin: State whether 0.03 nM exceeds IC50 recorded for CCc1nc(C(=O)N[C@H]2CC[C@@H](NC(=O)c3cc(F)cnc3Oc3cccc(-c4ccc(CN5C[C@@H](C)N[C@@H](C)C5)cc4)c3)CC2)cs1 .
stdout: Not fulfilled

stdin: State whether 0.03 nM exceeds IC50 recorded for C[C@@H]1CN(Cc2ccc(-c3cccc(Oc4ncc(F)cc4C(=O)N[C@H]4CC[C@@H](NC(=O)c5cccc6[nH]cnc56)CC4)c3)c(CN3CCOC[C@@H]3C)c2)C[C@H](C)N1 .
stdout: Fulfilled

stdin: State whether 0.03 nM exceeds IC50 recorded for Cn1ccc(C(=O)N[C@H]2CC[C@@H](NC(=O)c3cc(F)cnc3Oc3cccc(-c4ccc(CN5CCSCC5)cc4CN4CCOCC4)c3)CC2)n1 .
stdout: Fulfilled

---

biological target: recombinant Human Phosphodiesterase B2 (PDE4B2) (Homo sapiens, UniProt Q07343); assay: Human Phosphodiesterase B2 Radiometric Assay; assay type: biochemical; conditions: 0.1 μg/mL recombinant PDE4B2; preincubated at 30 C for 30 min; [3H]cyclic AMP 8 nM, stopped after 20 min; yttrium silicate SPA beads; read-out: PDE4B2 pIC50 (converted)
I'd be grateful if you could share measured IC50 for these entries.

Measured IC50 for this entry Cc1cccc2nc(C(=O)N[C@H]3CC[C@@H](NC(=O)c4cc(F)cnc4Oc4cccc(-c5ccc(CN6CCCN(C)CC6)cc5CN5CCOCC5)c4)CC3)cn12 [Example 185] on recombinant Human Phosphodiesterase B2 (PDE4B2) (Homo sapiens, UniProt Q07343): 0.02 nM

Measured IC50 for this entry C[C@@H]1CN(CCCc2ccc(-c3cccc(Oc4ncc(F)cc4C(=O)N[C@H]4CC[C@@H](NC(=O)c5cc6n(n5)CCCO6)CC4)c3)cc2)C[C@H](C)N1 [Example 168] on recombinant Human Phosphodiesterase B2 (PDE4B2) (Homo sapiens, UniProt Q07343): 0.0501 nM

Measured IC50 for this entry Cc1nc(C(=O)N[C@H]2CC[C@@H](NC(=O)c3cc(F)cnc3Oc3cccc(-c4ccc(CCCN5CCNCC5)cc4)c3)CC2)cs1 [Example 74] on recombinant Human Phosphodiesterase B2 (PDE4B2) (Homo sapiens, UniProt Q07343): 0.0251 nM

Measured IC50 for this entry Cc1ncsc1C(=O)N[C@H]1CC[C@@H](NC(=O)c2cc(F)cnc2Oc2cccc(-c3ccc(O)cc3CN3CCOCC3)c2)CC1 [Example 33] on recombinant Human Phosphodiesterase B2 (PDE4B2) (Homo sapiens, UniProt Q07343): 0.631 nM

Measured IC50 for this entry Cc1cccc2nc(C(=O)N[C@H]3CC[C@@H](NC(=O)c4cc(F)cnc4Oc4cccc(-c5ccc(CN(C)C)cc5)c4)CC3)cn12 [Example 47] on recombinant Human Phosphodiesterase B2 (PDE4B2) (Homo sapiens, UniProt Q07343): 0.794 nM

Measured IC50 for this entry Cc1cc(C(=O)N[C@H]2CC[C@@H](NC(=O)c3cc(F)cnc3Oc3cccc(-c4ccc(CCCN5CCNC[C@H]5C)cc4)c3)CC2)nn1C [Example 142] on recombinant Human Phosphodiesterase B2 (PDE4B2) (Homo sapiens, UniProt Q07343): 0.0251 nM

Measured IC50 for this entry Cc1nc(C(=O)N[C@H]2CC[C@@H](NC(=O)c3cc(F)cnc3Oc3cccc(-c4ccc(CN5CCNCC5)cc4O)c3)CC2)cs1 [Example 57] on recombinant Human Phosphodiesterase B2 (PDE4B2) (Homo sapiens, UniProt Q07343): 0.0631 nM

Measured IC50 for this entry Cc1cc(CN(Cc2cc(C)n(C)n2)[C@H]2CC[C@@H](NC(=O)c3cc(F)cnc3Oc3cccc(-c4ccc(O)cc4CN4CCOCC4)c3)CC2)nn1C [Example 4] on recombinant Human Phosphodiesterase B2 (PDE4B2) (Homo sapiens, UniProt Q07343): 63.1 nM

Measured IC50 for this entry Cc1csc(C(=O)N[C@H]2CC[C@@H](NC(=O)c3cc(F)cnc3Oc3cccc(-c4ccc(CN5CCN(CC(=O)NC(C)C)CC5)cc4CN4CCOCC4)c3)CC2)n1 [Example 198] on recombinant Human Phosphodiesterase B2 (PDE4B2) (Homo sapiens, UniProt Q07343): 0.0251 nM

Measured IC50 for this entry O=C(N[C@H]1CC[C@@H](NC(=O)c2cc(F)cnc2Oc2cccc(-c3ccc(O)cc3CN3CCCOCC3)c2)CC1)c1cn2cc(F)ccc2n1 [Example 13] on recombinant Human Phosphodiesterase B2 (PDE4B2) (Homo sapiens, UniProt Q07343): 0.02 nM

Measured IC50 for this entry Cc1nc(C(=O)N[C@H]2CC[C@@H](NC(=O)c3cc(F)cnc3Oc3cccc(-c4cc(O)cc(CN5C[C@@H](C)N[C@@H](C)C5)c4)c3)CC2)cs1 [Example 65] on recombinant Human Phosphodiesterase B2 (PDE4B2) (Homo sapiens, UniProt Q07343): 0.0398 nM

Measured IC50 for this entry O=C(N[C@H]1CC[C@@H](NC(=O)c2cc(F)cnc2Oc2cccc(-c3ccc(CCCN4CCNCC4)cc3)c2)CC1)c1csc(CO)n1 [Example 141] on recombinant Human Phosphodiesterase B2 (PDE4B2) (Homo sapiens, UniProt Q07343): 0.0631 nM
